- test system: c-Met enzyme (Homo sapiens (Human), UniProt P08581)
- Sequence (P08581 25-1390): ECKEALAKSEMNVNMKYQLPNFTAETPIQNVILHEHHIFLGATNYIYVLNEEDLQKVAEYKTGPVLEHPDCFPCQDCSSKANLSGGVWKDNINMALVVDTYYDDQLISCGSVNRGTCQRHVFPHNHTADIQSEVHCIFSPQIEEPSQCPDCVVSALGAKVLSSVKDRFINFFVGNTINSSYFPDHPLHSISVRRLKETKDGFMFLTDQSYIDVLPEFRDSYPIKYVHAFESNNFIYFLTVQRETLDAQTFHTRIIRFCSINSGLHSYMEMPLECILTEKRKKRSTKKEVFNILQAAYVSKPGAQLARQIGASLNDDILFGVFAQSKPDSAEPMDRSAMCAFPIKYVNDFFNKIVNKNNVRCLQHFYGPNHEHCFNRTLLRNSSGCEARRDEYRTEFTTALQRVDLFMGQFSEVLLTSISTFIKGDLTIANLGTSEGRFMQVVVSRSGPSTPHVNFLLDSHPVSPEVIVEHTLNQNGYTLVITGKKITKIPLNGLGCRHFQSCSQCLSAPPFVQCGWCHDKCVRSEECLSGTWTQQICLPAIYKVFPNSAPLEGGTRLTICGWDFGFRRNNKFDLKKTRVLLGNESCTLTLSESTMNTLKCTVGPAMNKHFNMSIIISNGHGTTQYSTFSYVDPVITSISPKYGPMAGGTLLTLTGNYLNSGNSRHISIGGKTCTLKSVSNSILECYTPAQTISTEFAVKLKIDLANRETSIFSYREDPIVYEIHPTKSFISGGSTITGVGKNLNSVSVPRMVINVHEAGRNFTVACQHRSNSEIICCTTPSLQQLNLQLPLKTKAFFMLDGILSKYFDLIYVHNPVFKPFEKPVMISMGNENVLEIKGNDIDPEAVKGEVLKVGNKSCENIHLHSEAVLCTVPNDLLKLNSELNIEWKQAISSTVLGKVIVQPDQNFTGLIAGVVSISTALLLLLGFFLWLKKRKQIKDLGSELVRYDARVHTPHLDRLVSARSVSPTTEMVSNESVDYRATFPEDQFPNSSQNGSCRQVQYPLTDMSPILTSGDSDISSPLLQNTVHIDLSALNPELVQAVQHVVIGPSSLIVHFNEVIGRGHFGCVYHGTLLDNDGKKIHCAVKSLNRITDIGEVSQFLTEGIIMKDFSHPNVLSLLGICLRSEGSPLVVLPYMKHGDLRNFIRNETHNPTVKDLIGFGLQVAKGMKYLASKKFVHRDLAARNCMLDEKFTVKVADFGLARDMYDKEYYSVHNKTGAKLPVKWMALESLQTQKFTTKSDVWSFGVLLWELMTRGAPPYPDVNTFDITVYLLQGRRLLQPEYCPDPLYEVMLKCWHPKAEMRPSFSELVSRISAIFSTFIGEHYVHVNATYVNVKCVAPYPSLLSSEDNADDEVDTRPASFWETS
- test: c-Met kinase inhibitory activity (DELFIA time-resolved fluorescence)
- run parameters: c-Met kinase activity reduced to 50%
Structures can show the parent of a compound that is named as a salt.
Provide the reported pIC50 of each item.
Give bare numbers, as −log10 of the molar value.

Cn1cc(-c2cnc3nnn(C[C@@H]4CN(c5ncc(-c6cnn(CCO)c6)cn5)CCO4)c3n2)cn1 [Chemical formula 11, hydrochloride] | 8.52

Please give pIC50, item by item, for the list that follows.
1. N#Cc1cccc(-c2cnc3nnn(C[C@@H]4CN(c5ncc(-c6cnn(CCO)c6)cn5)CCO4)c3n2)c1
2. Cn1cc(-c2cnc3nnn(C[C@@H]4CN(c5ncc(-c6ccc(CN7CCOCC7)cc6)cn5)CCO4)c3n2)cn1
3. Cn1cc(-c2cnc3nnn(C[C@@H]4CN(c5ncc(-c6cnn(C7CCNCC7)c6)cn5)CCO4)c3n2)cn1 [Chemical formula 4, HCl salt]
4. Cn1cc(-c2cnc3nnn(CC4CCCN(c5ncc(C6=CCN(CCO)CC6)cn5)C4)c3n2)cn1 (stereo not drawn)

1: 8.70; 2: 8.30; 3: 7.96; 4: 8.52

Record lookup: for c-Met enzyme (Homo sapiens (Human), UniProt P08581), what pIC50 belongs to Cn1cc(-c2cnc3nnn(CC4CCCN(c5ncc(-c6cnn(CCO)c6)cn5)C4)c3n2)cn1 (stereo not drawn) ?
8.70

---

- test system: c-Met enzyme (Homo sapiens (Human), UniProt P08581)
- test: c-Met kinase inhibitory activity (DELFIA time-resolved fluorescence)
- run parameters: c-Met kinase activity reduced to 50%
Counter-ions that a name gives are not always drawn.
endpoint label: pIC50
Answers are plain numbers, as −log10 of the molar value.

CN1CC=C(c2cnc(N3CCCC(Cn4nnc5ncc(-c6cnn(C)c6)nc54)C3)nc2)CC1 (stereo not shown) | 8.52
Cn1cc(-c2cnc3nnn(C[C@@H]4CN(c5ncc(C6=CCNCC6)cn5)CCO4)c3n2)cn1 [Chemical formula 9, hydrochloride] | 8.52
N#Cc1cc(-c2cnc3nnn(C[C@@H]4CN(c5ncc(C6=CCNCC6)cn5)CCO4)c3n2)ccc1F | 8.70
N#Cc1cc(-c2cnc3nnn(C[C@@H]4CN(c5ncc(-c6cnn(CCO)c6)cn5)CCO4)c3n2)ccc1F | 9.00

Each compound below has a reported value. Please supply its pIC50.
1. Cn1cc(-c2cnc3nnn(C[C@@H]4CN(c5ncc(-c6ccc(OCCN7CCOCC7)c(F)c6)cn5)CCO4)c3n2)cn1
2. Cn1cc(-c2cnc3nnn(CC4CCCN(c5ncc(C6=CCNCC6)cn5)C4)c3n2)cn1 (stereo not shown)
3. CN1CC=C(c2cnc(N3CCO[C@H](Cn4nnc5ncc(-c6cnn(C)c6)nc54)C3)nc2)CC1

7.82
8.52
8.40

---

Exercise: for every item that follows, state its recorded pIC50.
- test system: c-Met enzyme (Homo sapiens (Human), UniProt P08581)
- test: c-Met kinase inhibitory activity (DELFIA time-resolved fluorescence)
- Format: biochemical
- run parameters: c-Met kinase activity reduced to 50%
Answers are plain numbers, as −log10 of the molar value.

Cn1cc(-c2cnc3nnn(C[C@@H]4CN(c5ncc(-c6ccc(CN7CCOCC7)c(F)c6)cn5)CCO4)c3n2)cn1 | 8.40
Cn1cc(-c2cnc3nnn(C[C@@H]4CN(c5ncc(C6CCN(CCO)CC6)cn5)CCO4)c3n2)cn1 | 8.30
Cn1cc(-c2cnc3nnn(C[C@@H]4CN(c5ncc(-c6ccc(OCCN7CCOCC7)cc6)cn5)CCO4)c3n2)cn1 | 7.85
CC(=O)N1CCN(Cc2ccc(-c3cnc(N4CCO[C@H](Cn5nnc6ncc(-c7cnn(C)c7)nc65)C4)nc3)cc2)CC1 | 8.10

Could you tell me which pIC50 is on file for "CN1CCN(Cc2ccc(-c3cnc(N4CCO[C@H](Cn5nnc6ncc(-c7cccc(C#N)c7)nc65)C4)nc3)cc2)CC1" ?
8.10
